# reported Emax; entries follow
Molecular target: M2 muscarinic receptor (Homo sapiens)
Construct: expressed in transfected cells; host or cells: CHO (M2-CHO)
Sequence (P08172 whole entry): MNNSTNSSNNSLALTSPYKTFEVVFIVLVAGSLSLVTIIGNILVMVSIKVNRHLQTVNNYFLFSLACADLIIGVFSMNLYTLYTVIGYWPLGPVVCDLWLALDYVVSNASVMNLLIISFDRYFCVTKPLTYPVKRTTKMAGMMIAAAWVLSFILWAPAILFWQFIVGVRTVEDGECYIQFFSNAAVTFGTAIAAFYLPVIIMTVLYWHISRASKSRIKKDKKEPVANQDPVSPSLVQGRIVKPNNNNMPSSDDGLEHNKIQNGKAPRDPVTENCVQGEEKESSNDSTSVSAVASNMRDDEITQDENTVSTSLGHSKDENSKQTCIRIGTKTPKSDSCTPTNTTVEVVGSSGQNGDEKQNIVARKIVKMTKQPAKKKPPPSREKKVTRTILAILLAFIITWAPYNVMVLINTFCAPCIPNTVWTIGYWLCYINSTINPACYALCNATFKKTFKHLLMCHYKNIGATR
Test: Functional mobilization of intracellular calcium (FLIPR) in CHO cells expressing M2
Type: cell-based
Details: CHO; 100% efficacy = maximum response obtained with the Carbachol control

Answered examples (5):
# structure, Emax
measured = [
    ("CC(=O)N[C@H]1CC2(CCN(CCC(C)(C)C)CC2)c2ccc(C)cc21", "< 25%"),
    ("C=CCCCN1CCC2(CC1)C[C@H](NC(=O)N1CCCC1)c1ccccc12", "< 25%"),
    ("CN1CCC2(CCCc3ccccc32)CC1", "< 25%"),
    ("CCOc1ccc(CN2CCC3(CC[C@H](NC(C)=O)c4ccccc43)CC2)cc1", "< 25%"),
    ("CC(C)(C)CCN1CCC2(CC[C@H](NC(=O)CCCN3CCCC3=O)c3ccccc32)CC1", "25 to 100%"),
]

Emax for CC(C)(C)CCN1CCC2(CC[C@H](NC(=O)C(F)(F)F)c3ccccc32)CC1 ? < 25%

Can you handle CCn1ccc(C(=O)N[C@H]2CCC3(CCN(CCC(C)(C)C)CC3)c3ccccc32)n1 next? < 25%

Can you handle COCCC(=O)N[C@H]1CCC2(CCN(CCC(C)(C)C)CC2)c2cc(F)ccc21 next? 25 to 100%

Values were extracted from patent US8003660B2.
